B1: library; a variant is named by its letters at N, in order (parent)
chain: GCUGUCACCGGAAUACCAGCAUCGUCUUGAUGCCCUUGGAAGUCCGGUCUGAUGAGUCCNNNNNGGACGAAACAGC

Variants of: B1
Assay: FACS-Seq fitted mean relative fluorescence mCherry/BFP with ligand (log10 relative fluorescence); ligand concentration (+) FACS-Seq: 1 mM; higher = higher reporter protein expression
Details: HEK293T, ligand present: yes

sequence.data	FACS-Seq fitted mean (log10)
GCUGUCACCGGAAUACCAGCAUCGUCUUGAUGCCCUUGGAAGUCCGGUCUGAUGAGUCCGAUGUGGACGAAACAGC [GAUGU]	0.375
GCUGUCACCGGAAUACCAGCAUCGUCUUGAUGCCCUUGGAAGUCCGGUCUGAUGAGUCCAUACAGGACGAAACAGC [AUACA]	0.796
GCUGUCACCGGAAUACCAGCAUCGUCUUGAUGCCCUUGGAAGUCCGGUCUGAUGAGUCCCGAGCGGACGAAACAGC [CGAGC]	0.508
GCUGUCACCGGAAUACCAGCAUCGUCUUGAUGCCCUUGGAAGUCCGGUCUGAUGAGUCCAGAACGGACGAAACAGC [AGAAC]	0.507
GCUGUCACCGGAAUACCAGCAUCGUCUUGAUGCCCUUGGAAGUCCGGUCUGAUGAGUCCGAACUGGACGAAACAGC [GAACU]	0.975
GCUGUCACCGGAAUACCAGCAUCGUCUUGAUGCCCUUGGAAGUCCGGUCUGAUGAGUCCACUUUGGACGAAACAGC [ACUUU]	0.813
GCUGUCACCGGAAUACCAGCAUCGUCUUGAUGCCCUUGGAAGUCCGGUCUGAUGAGUCCUACUUGGACGAAACAGC [UACUU]	0.754
GCUGUCACCGGAAUACCAGCAUCGUCUUGAUGCCCUUGGAAGUCCGGUCUGAUGAGUCCCAGAAGGACGAAACAGC [CAGAA]	0.681
GCUGUCACCGGAAUACCAGCAUCGUCUUGAUGCCCUUGGAAGUCCGGUCUGAUGAGUCCUCUAAGGACGAAACAGC [UCUAA]	0.588
GCUGUCACCGGAAUACCAGCAUCGUCUUGAUGCCCUUGGAAGUCCGGUCUGAUGAGUCCAACUCGGACGAAACAGC [AACUC]	0.924
GCUGUCACCGGAAUACCAGCAUCGUCUUGAUGCCCUUGGAAGUCCGGUCUGAUGAGUCCGCAGAGGACGAAACAGC [GCAGA]	0.875
GCUGUCACCGGAAUACCAGCAUCGUCUUGAUGCCCUUGGAAGUCCGGUCUGAUGAGUCCCGAACGGACGAAACAGC [CGAAC]	1.02
GCUGUCACCGGAAUACCAGCAUCGUCUUGAUGCCCUUGGAAGUCCGGUCUGAUGAGUCCACCUCGGACGAAACAGC [ACCUC]	0.737
GCUGUCACCGGAAUACCAGCAUCGUCUUGAUGCCCUUGGAAGUCCGGUCUGAUGAGUCCUACCGGGACGAAACAGC [UACCG]	1.09
GCUGUCACCGGAAUACCAGCAUCGUCUUGAUGCCCUUGGAAGUCCGGUCUGAUGAGUCCCGACUGGACGAAACAGC [CGACU]	0.529
GCUGUCACCGGAAUACCAGCAUCGUCUUGAUGCCCUUGGAAGUCCGGUCUGAUGAGUCCUAAAAGGACGAAACAGC [UAAAA]	0.589
GCUGUCACCGGAAUACCAGCAUCGUCUUGAUGCCCUUGGAAGUCCGGUCUGAUGAGUCCAGCAGGGACGAAACAGC [AGCAG]	0.944
GCUGUCACCGGAAUACCAGCAUCGUCUUGAUGCCCUUGGAAGUCCGGUCUGAUGAGUCCUACCAGGACGAAACAGC [UACCA]	0.436
GCUGUCACCGGAAUACCAGCAUCGUCUUGAUGCCCUUGGAAGUCCGGUCUGAUGAGUCCUACGCGGACGAAACAGC [UACGC]	0.916
GCUGUCACCGGAAUACCAGCAUCGUCUUGAUGCCCUUGGAAGUCCGGUCUGAUGAGUCCAAUACGGACGAAACAGC [AAUAC]	1.06
GCUGUCACCGGAAUACCAGCAUCGUCUUGAUGCCCUUGGAAGUCCGGUCUGAUGAGUCCAAUUAGGACGAAACAGC [AAUUA]	0.477
GCUGUCACCGGAAUACCAGCAUCGUCUUGAUGCCCUUGGAAGUCCGGUCUGAUGAGUCCGCAAUGGACGAAACAGC [GCAAU]	1.06
GCUGUCACCGGAAUACCAGCAUCGUCUUGAUGCCCUUGGAAGUCCGGUCUGAUGAGUCCAGCGCGGACGAAACAGC [AGCGC]	0.52
GCUGUCACCGGAAUACCAGCAUCGUCUUGAUGCCCUUGGAAGUCCGGUCUGAUGAGUCCUGCACGGACGAAACAGC [UGCAC]	0.991
GCUGUCACCGGAAUACCAGCAUCGUCUUGAUGCCCUUGGAAGUCCGGUCUGAUGAGUCCUCAACGGACGAAACAGC [UCAAC]	0.879
GCUGUCACCGGAAUACCAGCAUCGUCUUGAUGCCCUUGGAAGUCCGGUCUGAUGAGUCCAUGCCGGACGAAACAGC [AUGCC]	0.852
GCUGUCACCGGAAUACCAGCAUCGUCUUGAUGCCCUUGGAAGUCCGGUCUGAUGAGUCCAUUGCGGACGAAACAGC [AUUGC]	1.02
GCUGUCACCGGAAUACCAGCAUCGUCUUGAUGCCCUUGGAAGUCCGGUCUGAUGAGUCCUCGACGGACGAAACAGC [UCGAC]	0.965
GCUGUCACCGGAAUACCAGCAUCGUCUUGAUGCCCUUGGAAGUCCGGUCUGAUGAGUCCAAGAAGGACGAAACAGC [AAGAA]	0.545
GCUGUCACCGGAAUACCAGCAUCGUCUUGAUGCCCUUGGAAGUCCGGUCUGAUGAGUCCAGGUCGGACGAAACAGC [AGGUC]	0.587
GCUGUCACCGGAAUACCAGCAUCGUCUUGAUGCCCUUGGAAGUCCGGUCUGAUGAGUCCAAGGAGGACGAAACAGC [AAGGA]	0.856
GCUGUCACCGGAAUACCAGCAUCGUCUUGAUGCCCUUGGAAGUCCGGUCUGAUGAGUCCACCCGGGACGAAACAGC [ACCCG]	0.973
GCUGUCACCGGAAUACCAGCAUCGUCUUGAUGCCCUUGGAAGUCCGGUCUGAUGAGUCCUCUAUGGACGAAACAGC [UCUAU]	0.994
GCUGUCACCGGAAUACCAGCAUCGUCUUGAUGCCCUUGGAAGUCCGGUCUGAUGAGUCCCUACAGGACGAAACAGC [CUACA]	0.826
GCUGUCACCGGAAUACCAGCAUCGUCUUGAUGCCCUUGGAAGUCCGGUCUGAUGAGUCCGUGAUGGACGAAACAGC [GUGAU]	-0.0667
GCUGUCACCGGAAUACCAGCAUCGUCUUGAUGCCCUUGGAAGUCCGGUCUGAUGAGUCCAACUAGGACGAAACAGC [AACUA]	1
GCUGUCACCGGAAUACCAGCAUCGUCUUGAUGCCCUUGGAAGUCCGGUCUGAUGAGUCCGAAGAGGACGAAACAGC [GAAGA]	0.761
GCUGUCACCGGAAUACCAGCAUCGUCUUGAUGCCCUUGGAAGUCCGGUCUGAUGAGUCCACCGAGGACGAAACAGC [ACCGA]	0.768
GCUGUCACCGGAAUACCAGCAUCGUCUUGAUGCCCUUGGAAGUCCGGUCUGAUGAGUCCCUCUUGGACGAAACAGC [CUCUU]	0.874
GCUGUCACCGGAAUACCAGCAUCGUCUUGAUGCCCUUGGAAGUCCGGUCUGAUGAGUCCCAACUGGACGAAACAGC [CAACU]	0.815
GCUGUCACCGGAAUACCAGCAUCGUCUUGAUGCCCUUGGAAGUCCGGUCUGAUGAGUCCUAUAGGGACGAAACAGC [UAUAG]	0.896
GCUGUCACCGGAAUACCAGCAUCGUCUUGAUGCCCUUGGAAGUCCGGUCUGAUGAGUCCGAACAGGACGAAACAGC [GAACA]	0.116
GCUGUCACCGGAAUACCAGCAUCGUCUUGAUGCCCUUGGAAGUCCGGUCUGAUGAGUCCAAAAAGGACGAAACAGC [AAAAA]	0.356
GCUGUCACCGGAAUACCAGCAUCGUCUUGAUGCCCUUGGAAGUCCGGUCUGAUGAGUCCGACUUGGACGAAACAGC [GACUU]	0.696
GCUGUCACCGGAAUACCAGCAUCGUCUUGAUGCCCUUGGAAGUCCGGUCUGAUGAGUCCAGAGGGGACGAAACAGC [AGAGG]	0.966
GCUGUCACCGGAAUACCAGCAUCGUCUUGAUGCCCUUGGAAGUCCGGUCUGAUGAGUCCUAUGAGGACGAAACAGC [UAUGA]	0.686
